# ASSAYED SYSTEM: Adenosine receptor A2b (Homo sapiens)
# Sequence (whole entry): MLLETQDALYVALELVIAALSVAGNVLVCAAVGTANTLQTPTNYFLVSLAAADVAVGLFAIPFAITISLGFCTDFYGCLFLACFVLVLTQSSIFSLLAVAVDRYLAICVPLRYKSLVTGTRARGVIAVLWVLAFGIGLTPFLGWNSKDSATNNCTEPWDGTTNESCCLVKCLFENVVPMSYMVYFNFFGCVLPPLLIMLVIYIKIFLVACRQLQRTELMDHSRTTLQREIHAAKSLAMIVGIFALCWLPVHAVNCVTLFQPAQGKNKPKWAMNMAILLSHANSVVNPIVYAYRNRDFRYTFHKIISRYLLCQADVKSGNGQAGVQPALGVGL
# MEASUREMENT PROTOCOL: Displacement of [3H]DPCPX from recombinant human adenosine A2B receptor expressed in HEK293 cells at 0.01 uM
EXPERIMENTAL ENDPOINT: inhibition (%)

Below, each entry is followed by its recorded inhibition result.
>>> print(df.to_string())
                                   molecule  readout_value
0  CCCn1c(=O)c2[nH]c(-c3ccc(OCC(=O)Nc4ccc(C(=O)OCC)cc4)cc3)cc2n(CCC)c1=O              6
1  O=C(O)COc1ccc(-c2cc3c([nH]2)c(=O)n(CC2CC2)c(=O)n3CC2CC2)cc1             27

I. CCCn1c(=O)c2[nH]c(-c3ccc(OCC(=O)NC(CO)c4ccccc4)cc3)cc2n(CCC)c1=O (centres undefined)
II. COc1cc(-c2cc3c([nH]2)c(=O)n(C)c(=O)n3C)ccc1OCC(=O)Nc1ccc(C#N)cc1
Req: Which value of inhibition is greater, the one for I or the one for II ? Your choice should be expressed through its label.
Resp: I
